Property Name: melting point

Please indicate melting point recorded for COc1ccc(C)cc1NC(=O)c1ccc2ccccc2c1O
106 to 108 °C

Query melting point for O=C(Nc1c(Cl)cc(C(F)(F)F)cc1Cl)c1ccc2ccccc2c1O
191 to 194 °C

Provide measured melting point value, entry: O=C(Nc1c(F)cccc1F)c1ccc2ccccc2c1O
197 to 200 °C

Indicate the recorded melting point value for this compound: O=C(Nc1cc(F)cc(F)c1)c1ccc2ccccc2c1O
199 to 200 °C

For the compound O=C(Nc1cc(Cl)ccc1F)c1ccc2ccccc2c1O , report melting point.
169 to 171 °C

Given O=C(Nc1c(F)cc(F)cc1F)c1ccc2ccccc2c1O , respond with its melting point.
180 to 184 °C

Determine its reported melting point: O=C(Nc1cc(Br)ccc1F)c1ccc2ccccc2c1O
174 to 177 °C

These entries and their values trace back to paper PMC6476888.
